These data points were gathered from patent US20100197591A1.

Target: Human full-length diacylglycerol:acylCoA acyltransferase 1 (DGAT-1) (Homo sapiens, UniProt O75907)
Construct: Human full-length diacylglycerol:acylCoA acyltransferase 1 (DGAT-1) was expressed in Sf9 insect cells; made in house; host or cells: Sf9 insect cells (baculovirus); crude membrane/microsome fraction
Sequence (O75907 whole entry): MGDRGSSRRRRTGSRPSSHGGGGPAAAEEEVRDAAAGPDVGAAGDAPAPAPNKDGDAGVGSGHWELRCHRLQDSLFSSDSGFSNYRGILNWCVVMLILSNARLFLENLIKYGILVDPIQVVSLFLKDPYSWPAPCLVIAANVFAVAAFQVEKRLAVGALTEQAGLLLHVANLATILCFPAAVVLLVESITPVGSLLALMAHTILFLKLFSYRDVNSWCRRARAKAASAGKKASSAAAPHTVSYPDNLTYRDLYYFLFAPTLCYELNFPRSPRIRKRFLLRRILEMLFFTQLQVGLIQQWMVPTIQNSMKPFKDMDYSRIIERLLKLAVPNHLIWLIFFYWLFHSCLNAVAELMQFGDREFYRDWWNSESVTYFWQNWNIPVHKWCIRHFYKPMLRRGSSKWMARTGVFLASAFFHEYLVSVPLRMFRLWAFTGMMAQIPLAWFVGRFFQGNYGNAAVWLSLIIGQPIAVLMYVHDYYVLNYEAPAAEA
Assay: DGAT-1 Reduced Microsome Multidose Assay, G7329F Human IC50
Assay type: biochemical
Settings: crude membrane fraction of Sf9 cells expressing human DGAT-1; [14C]decanoylCoA; apparent IC50, average where tested more than once
pIC50: −log10 of the molar value.
# label = yes if pIC50 >= 7 else no

Solved cases (2 shown):
INSERT INTO measurements (compound, label_class) VALUES
  ('COc1nc(N)c2c(n1)CCN(c1ccc(C3CC3)cc1)C2=O', 'yes'),
  ('COc1nc(N)c2c(n1)CCN(c1ccc(C(OC)C(C)(C)C)cc1)C2=O (centres unmarked) [Example 10D]', 'yes');

Next compound, please.
Say whether COc1nc(N)c2c(n1)CCN(c1ccc(C(C)(C)C(=O)N(C)C)cc1)C2=O shows pIC50 of 7 or more.
no
